Reported chromatographic logP values are given for each entry in this list.
- assayProtocol: log P determination by HPLC on reversed-phase columns (EEC Directive 79/831 Annex V.A8)
- Assay type: physicochemical
- recordedConditions: pH 2.7

{"structure": "CNC(=O)c1cc(Cl)cc(C)c1NC(=O)c1cc(Cn2ncc(-c3ccc(Cl)cc3)n2)nn1-c1ncccc1Cl", "chromatographic logP": 3.62}
{"structure": "CNC(=O)c1cc(I)cc(C)c1NC(=O)c1cc(Cn2cc(C(F)(F)F)nn2)nn1-c1ncccc1Cl", "chromatographic logP": 2.86}
{"structure": "Cc1cc(Cl)cc(C(=O)NC2CC2)c1NC(=O)c1cc(Cn2cc(C(F)(F)C(F)(F)F)nn2)nn1-c1ncccc1Cl", "chromatographic logP": 3.26}
{"structure": "CCNC(=O)c1cc(Cl)cc(C)c1NC(=O)c1cc(Cn2nc(C(F)(F)F)c(C(F)(F)F)n2)nn1-c1ncccc1Cl", "chromatographic logP": 3.98}
{"structure": "CCNC(=O)c1cc(C#N)cc(C)c1NC(=O)c1cc(Cn2ncc(C(F)(F)C(F)(F)F)n2)nn1-c1ncccc1Cl", "chromatographic logP": 3.26}
{"structure": "CNC(=O)c1cc(Br)cc(C)c1NC(=O)c1cc(Cn2ncc(C(F)(F)F)n2)nn1-c1ncccc1Cl", "chromatographic logP": 3.1}
{"structure": "CNC(=O)c1cc(Cl)cc(C)c1NC(=O)c1cc(Cn2nnc3cc(Cl)c(Cl)cc32)nn1-c1ncccc1Cl", "chromatographic logP": 3.33}

Where these numbers come from: patent US8536202B2
